These measurements were taken from ChEMBL document CHEMBL1149362.

Measured pIC50 values are reported for all entries that follow.
# TESTED_ON: UniProt:P00750
# Sequence (P00750 whole entry): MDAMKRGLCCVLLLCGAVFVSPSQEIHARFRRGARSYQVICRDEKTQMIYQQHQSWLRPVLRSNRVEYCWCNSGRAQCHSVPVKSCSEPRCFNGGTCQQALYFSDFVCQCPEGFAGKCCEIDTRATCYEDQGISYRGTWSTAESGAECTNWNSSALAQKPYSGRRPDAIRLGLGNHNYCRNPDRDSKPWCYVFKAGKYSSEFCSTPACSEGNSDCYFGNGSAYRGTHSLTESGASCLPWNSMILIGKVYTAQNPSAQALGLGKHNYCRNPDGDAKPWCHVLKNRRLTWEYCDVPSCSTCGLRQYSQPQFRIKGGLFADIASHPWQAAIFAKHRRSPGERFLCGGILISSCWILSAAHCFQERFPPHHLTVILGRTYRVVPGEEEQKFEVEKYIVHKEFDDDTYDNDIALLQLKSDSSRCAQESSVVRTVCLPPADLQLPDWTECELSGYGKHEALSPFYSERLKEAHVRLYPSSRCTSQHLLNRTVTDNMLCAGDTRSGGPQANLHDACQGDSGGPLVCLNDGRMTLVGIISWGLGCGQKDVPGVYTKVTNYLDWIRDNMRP
# METHOD_SUMMARY: Inhibition of recombinant tPA
On this scale, pIC50 is minus log10 of a concentration expressed in M (mol/L).

INSERT INTO assay_data (compound, numeric_result) VALUES
  ('CC(=O)Nc1ccc(OP(=O)(Oc2ccc(NC(C)=O)cc2)C(Cc2ccc(N=C(N)N)cc2)NC(=O)[C@H](C)NC(=O)[C@@H](CO)NC(=O)OCc2ccccc2)cc1 (stereo partly specified)', 5.19),
  ('C[C@H](NC(=O)[C@@H](CO)NS(=O)(=O)c1cccs1)C(=O)NC(Cc1ccc(N=C(N)N)cc1)P(=O)(Oc1ccccc1)Oc1ccccc1 (stereo partly specified)', 5.47),
  ('C[C@H](NC(=O)[C@@H](CO)NS(=O)(=O)c1cccc2ccccc12)C(=O)NC(Cc1ccc(N=C(N)N)cc1)P(=O)(Oc1ccccc1)Oc1ccccc1 (stereo partly specified)', 5.36),
  ('Cc1cccc(C)c1C(=O)N[C@H](CO)C(=O)N[C@@H](C)C(=O)NC(Cc1ccc(NC(=N)N)cc1)P(=O)(Oc1ccccc1)Oc1ccccc1 (stereo partly specified)', 5.44);

Reported pIC50 for Cc1ccccc1C(=O)N[C@H](CO)C(=O)N[C@@H](C)C(=O)NC(Cc1ccc(NC(=N)N)cc1)P(=O)(Oc1ccccc1)Oc1ccccc1 (stereo partly specified) : what is it? 5.26

Reported pIC50 for C[C@H](NC(=O)[C@@H](CO)NS(=O)(=O)c1ccccc1)C(=O)NC(Cc1ccc(NC(=N)N)cc1)P(=O)(Oc1ccccc1)Oc1ccccc1 (stereo partly specified) : what is it? 5.51
